- Measured On: Ribonucleotide reductase large subunit (Herpes simplex virus 2)
- Test Name: Inhibitory activity against HSV-2 in baby hamster kidney cell
Non-standard residues stand in square brackets, D forms with d. Residues, ends and D or L forms follow the SMILES beside them. *: point of attachment. Asp(3,3-(CH2)4) = N[C@H](C(=O)O)C1(C(=O)O)CCCC1; Dibenzylacetyl = O=C(C(Cc1ccccc1)Cc1ccccc1)*; Leu(γ-Me)ol = CC(C)(C)C[C@@H](CO)N*; Hydrocinnamoyl = O=C(CCc1ccccc1)*; tBuAla = CC(C)(C)C[C@H](N)C(=O)O; Tle = CC(C)(C)[C@H](N)C(=O)O; NMeV = CN[C@H](C(=O)O)C(C)C; Leu(ol) = CC(C)C[C@H](N)CO; Pyrrolidide = C1CCN(*)C1
Experimental Readout: EC50 (µM)

Before answering, review these 6 worked examples.
# Compound, Measured On, Value Measured
data = [
    ("CC(C)[C@@H](C(=O)N[C@H](C(=O)N[C@@H](CC(=O)N1CCCC1)C(=O)N[C@H](C(=O)N[C@H](CO)CC(C)(C)C)C1(C(=O)O)CCCC1)C(C)(C)C)N(C)C(=O)CCc1ccccc1 (Hydrocinnamoyl-[NMeV][Tle]D(Pyrrolidide)[Asp(3,3-(CH2)4)]-{Leu(γ-Me)ol})", "Ribonucleotide reductase large subunit (Herpes simplex virus 2)", 35),
    ("CC(C)C[C@@H](CO)NC(=O)[C@@H](NC(=O)[C@H](CC(=O)N1CCCC1)NC(=O)[C@@H](NC(=O)[C@H](C(C)C)N(C)C(=O)C(Cc1ccccc1)Cc1ccccc1)C(C)(C)C)C1(C(=O)O)CCCC1 (Dibenzylacetyl-[NMeV][Tle]D(Pyrrolidide)[Asp(3,3-(CH2)4)][Leu(ol)])", "Ribonucleotide reductase large subunit (Herpes simplex virus 2)", 7.3),
    ("CC(C)[C@@H](C(=O)N[C@H](C(=O)N[C@@H](CC(=O)N1CCCC1)C(=O)N[C@H](C(=O)N[C@@H](CC(C)(C)C)C(=O)O)C1(C(=O)O)CCCC1)C(C)(C)C)N(C)C(=O)C(Cc1ccccc1)Cc1ccccc1 (Dibenzylacetyl-[NMeV][Tle]D(Pyrrolidide)[Asp(3,3-(CH2)4)][tBuAla]-OH)", "Ribonucleotide reductase large subunit (Herpes simplex virus 2)", 30),
    ("CC(C)[C@@H](C(=O)N[C@H](C(=O)N[C@@H](CC(=O)N1CCCC1)C(=O)N[C@H](C(=O)N[C@H](CO)CC(C)(C)C)C1(C(=O)O)CCCC1)C(C)(C)C)N(C)C(=O)C(Cc1ccccc1)Cc1ccccc1 (Dibenzylacetyl-[NMeV][Tle]D(Pyrrolidide)[Asp(3,3-(CH2)4)]-{Leu(γ-Me)ol})", "Ribonucleotide reductase large subunit (Herpes simplex virus 2)", 4.2),
    ("CC(C)[C@H](NC(=O)C(Cc1ccccc1)Cc1ccccc1)C(=O)N[C@H](C(=O)N[C@@H](CC(=O)N1CCCC1)C(=O)N[C@H](C(=O)N[C@H](CO)CC(C)(C)C)C1(C(=O)O)CCCC1)C(C)(C)C (Dibenzylacetyl-V[Tle]D(Pyrrolidide)[Asp(3,3-(CH2)4)]-{Leu(γ-Me)ol})", "Ribonucleotide reductase large subunit (Herpes simplex virus 2)", 14),
    ("CC(C)[C@H](NC(=O)[C@H](C(C)C)N(C)C(=O)C(Cc1ccccc1)Cc1ccccc1)C(=O)N[C@@H](CC(=O)N1CCCC1)C(=O)N[C@H](C(=O)N[C@H](CO)CC(C)(C)C)C1(C(=O)O)CCCC1 (Dibenzylacetyl-[NMeV]VD(Pyrrolidide)[Asp(3,3-(CH2)4)]-{Leu(γ-Me)ol})", "Ribonucleotide reductase large subunit (Herpes simplex virus 2)", 6.5),
]

[P] CC(C)[C@@H](C(=O)N[C@H](C(=O)N[C@@H](CC(=O)N1CCCC1)C(=O)N[C@@H](CC(=O)O)C(=O)N[C@H](CO)CC(C)(C)C)C(C)(C)C)N(C)C(=O)C(Cc1ccccc1)Cc1ccccc1 (Dibenzylacetyl-[NMeV][Tle]D(Pyrrolidide)D-{Leu(γ-Me)ol})
[Q] CC(C)[C@@H](C(=O)N[C@H](C(=O)N[C@@H](CC(N)=O)C(=O)N[C@H](C(=O)N[C@H](CO)CC(C)(C)C)C1(C(=O)O)CCCC1)C(C)(C)C)N(C)C(=O)C(Cc1ccccc1)Cc1ccccc1 (Dibenzylacetyl-[NMeV][Tle]N[Asp(3,3-(CH2)4)]-{Leu(γ-Me)ol})
I'm curious, which of these has a smaller EC50 number: P or Q ? Give the label under which the chosen entry appears.
P

Taken from ChEMBL document CHEMBL1128692.
